The origin of these recorded values is PubChem BioAssay (NCI).

System: MDA-MB-231 breast
Assay: NCI tumour cell line growth inhibition, 48 h
Property Name: TGI

Answered cases to consult:
>  <Molecule>
NC(=O)NCCCC(NC(=O)OCCCCCCn1ccc(=O)[nH]c1=O)C(=O)O (stereo not given)

>  <Tgt>
MDA-MB-231 breast

>  <Reported Value>
> 100 µM

$$$$
>  <Molecule>
COc1ccc(CCCNC(=O)c2cc(OC)c(OC)cc2CCO)cc1OC

>  <Tgt>
MDA-MB-231 breast

>  <Reported Value>
> 100 µM

$$$$
>  <Molecule>
O=C(c1ccccc1)C1OC1c1ccc([N+](=O)[O-])cc1 (stereo not given)

>  <Tgt>
MDA-MB-231 breast

>  <Reported Value>
33.1 µM

$$$$
>  <Molecule>
O=C1CSC(c2ccccc2[N+](=O)[O-])N1c1ccc(-c2ccc(-n3c(-c4ccccc4)nc4ccccc4c3=O)cc2)cc1 (stereo not given)

>  <Tgt>
MDA-MB-231 breast

>  <Reported Value>
> 100 µM

$$$$
>  <Molecule>
COc1cccc(NC(=O)c2sc3nc(C)c(C(O)c4ccccc4)cc3c2N)c1 (stereo not given)

>  <Tgt>
MDA-MB-231 breast

>  <Reported Value>
33.5 µM

$$$$
>  <Molecule>
COc1ccc(/C=C2\CCS(=O)(=O)c3ccccc3C2=O)cc1

>  <Tgt>
MDA-MB-231 breast

>  <Reported Value>
75.3 µM

$$$$
>  <Molecule>
Clc1ccc(-c2c3c(nn2-c2ccccn2)CCc2ccccc2-3)cc1Cl

>  <Tgt>
MDA-MB-231 breast

>  <Reported Value>
> 100 µM

$$$$
>  <Molecule>
CC(=O)Nc1c(C)cc2c(nc3n2CCC3OC(C)=O)c1[N+](=O)[O-] (stereo not given)

>  <Tgt>
MDA-MB-231 breast

>  <Reported Value>
> 100 µM

$$$$
>  <Molecule>
N#CC(=N)c1ncn(-c2ccc(N)cc2)c1N

>  <Tgt>
MDA-MB-231 breast

>  <Reported Value>
> 100 µM

$$$$

Read the next record carefully.
*Q* Query: TGI; subject: COC(=O)c1cc(O)c2cc3c(cc2c1-c1cc(OC)c(OC)c(OC)c1)OCO3
*A* > 100 µM
